Data origin: patent US10294202B2

tested on: johnsongrass; assay: Test C pre-/postemergence herbicide test; format: in vivo, Sorghum halepense; conditions: Preemergence, 62 g ai/ha; scale 0 to 100 (0 no effect, 100 complete control)
propertyLabel: Johnsongrass plant response rating
Form field (numeric): enter value without unit.

[
  {
    "compound": "O=C1NCC(c2cccc(Br)c2)C1C(=O)Nc1cccc(F)c1F (stereo not shown)",
    "Johnsongrass plant response rating": 10
  },
  {
    "compound": "O=C1NCC(c2cccc(C(F)(F)F)c2)C1C(=O)Nc1ccc(F)c(F)c1F (stereo not shown)",
    "Johnsongrass plant response rating": 85
  }
]

Prompt: Record request: Johnsongrass plant response rating value, item O=C1NCC(c2cccc(C(F)F)c2)C1C(=O)Nc1cccc(F)c1F (racemic)
Response: 0

Prompt: Could you do the same for O=C1NCC(c2ccc(C(F)(F)F)cc2)C1C(=O)Nc1ccc(F)c(F)c1F (stereo not shown) , please?
Response: 20

Prompt: Could you do the same for O=C1NCC(c2cccc(Br)c2)C1C(=O)Nc1ccccc1F (stereo not shown) , please?
Response: 0

Prompt: Could you do the same for O=C1NCC(c2cccc(C(F)(F)F)c2)C1C(=O)Nc1ccccc1Cl (racemic) , please?
Response: 0

Prompt: Could you do the same for O=C1NCC(c2cccc(C(F)(F)F)c2)C1C(=O)Nc1ccc(F)cc1F (racemic) , please?
Response: 0

---

tested on: galium; test: Test A postemergence herbicide test; type: in vivo, Galium aparine; settings: 125 g ai/ha, 0 to 100 scale, 0 is no effect, 100 is complete control
propertyLabel: Plant response rating, Galium
Form field (numeric): enter value without unit.

[
  {
    "compound": "O=C1NCC(c2cccc(Cl)c2)C1C(=O)Nc1cccc(F)c1F (racemic)",
    "propertyLabel": "Plant response rating, Galium",
    "readoutValue": 60
  },
  {
    "compound": "O=C1NCC(c2ccc3c(c2)OC(F)(F)O3)C1C(=O)Nc1ccccc1F (racemic)",
    "propertyLabel": "Plant response rating, Galium",
    "readoutValue": 50
  }
]

Prompt: Record request: Plant response rating, Galium value, item CN1CC(c2ccc(F)cc2)C(C(=O)Nc2cccc(F)c2F)C1=O (stereo not shown)
Response: 40

Prompt: Could you do the same for O=C1NCC(c2cc(F)cc(F)c2)C1C(=O)Nc1ccc(F)cc1F (racemic) , please?
Response: 40

---

system: soybean; assay: Test C pre-/postemergence herbicide test; type: in vivo, Glycine max; conditions: Preemergence, 62 g ai/ha; scale 0 to 100 (0 no effect, 100 complete control)
Recorded Soybean plant response rating by entry
Form field (numeric): enter value without unit.

See these solved cases before continuing.
[
  {
    "molecule": "O=C1NCC(c2cc(F)cc(F)c2)C1C(=O)Nc1cccc(F)c1F (racemic) [Compound 279]",
    "Soybean plant response rating": 0
  },
  {
    "molecule": "O=C1NCC(c2cccc(C(F)(F)F)c2)C1C(=O)Nc1cccc(Cl)c1F (stereo not drawn) [Compound 316]",
    "Soybean plant response rating": 0
  },
  {
    "molecule": "O=C1NCC(c2cccc(C(F)(F)F)c2)C1C(=O)Nc1ccc(F)c(F)c1F (stereo not drawn) [Compound 315]",
    "Soybean plant response rating": 0
  },
  {
    "molecule": "O=C1NCC(c2cccc(C(F)(F)F)c2)C1C(=O)Nc1ccccc1Cl (racemic) [Compound 189]",
    "Soybean plant response rating": 10
  }
]

Prompt: Record request: Soybean plant response rating value, item O=C1NCC(c2cccc(C(F)F)c2)C1C(=O)Nc1cccc(F)c1F (racemic) [Compound 211]
Response: 0

Prompt: Could you do the same for O=C1NCC(c2cccc(C(F)(F)F)c2)C1C(=O)Nc1cccc(F)c1F (stereo not drawn) [Compound 241] , please?
Response: 0
